# system_under_test: HTRA1, Q92743
# Sequence (Q92743 360-477): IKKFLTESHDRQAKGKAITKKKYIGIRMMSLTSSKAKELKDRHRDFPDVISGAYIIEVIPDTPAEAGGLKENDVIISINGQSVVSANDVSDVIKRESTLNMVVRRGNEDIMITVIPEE
# assay_explanation: holdup assay
# Parameters: key: below the threshold = too weak to quantify, mostly under pKd 3.1 to 4
# protocol_conditions: plain residues with an end cap or a label only (N-terminal biotin on a linker: ado-ado)
reported_metric: pKd

Worked examples follow.
{"binder": "TSSMRGMDAV [RSRC2, Q7L4I2]", "pKd": "below the threshold"}
{"binder": "GSGAVEMESV [AQP6, Q13520]", "pKd": "below the threshold"}
{"binder": "TPPAAKKSRI [BAZ1A, Q9NRL2]", "pKd": "below the threshold"}
{"binder": "PKRSFIESNV [TANC1, Q9C0D5]", "pKd": "below the threshold"}
{"binder": "PRISRSQSEL [CCDC134, Q9H6E4]", "pKd": "below the threshold"}

Next binder, pKd to be filled in.
Would you mind telling me what pKd value was observed for NLSIEKETKL [ASNSD1, Q9NWL6] ? below the threshold
